Assay: xn = mol fraction of the nth substance listed, in the solute-free solvent
Conditions: 333.15 K; x2 = 0.6
Property measured: solubility (g/100 g solution)

{"Compound": "O=C(O)c1ccc(C(=O)O)o1 + O + COCCOC", "solubility (g/100 g solution)": 7.86}
{"Compound": "O=C(O)c1ccc(C(=O)O)o1 + C1COCCO1 + O", "solubility (g/100 g solution)": 5.63}
{"Compound": "O=C(O)c1ccc(C(=O)O)o1 + C1CCOC1 + O", "solubility (g/100 g solution)": 9.52}
{"Compound": "O=C(O)c1ccc(C(=O)O)o1 + O + COCCOCCOC", "solubility (g/100 g solution)": 8.03}

====

Test: xn = mol fraction of the nth substance listed, in the solute-free solvent
Details: 323.15 K; x2 = 0.4
Property measured: solubility (g/100 g solution)

{"Molecule": "CCCCOc1ccc(C(=O)CCN2CCCCC2)cc1.Cl + CO + C1CCOC1", "solubility (g/100 g solution)": 38.5}
{"Molecule": "COC1=CC(=O)CC(C)C12Oc1c(Cl)c(OC)cc(OC)c1C2=O (stereo not given) + CC(C)=O + CC(C)O", "solubility (g/100 g solution)": 2.51}
{"Molecule": "CCCCOc1ccc(C(=O)CCN2CCCCC2)cc1.Cl + CCO + CCCCCC", "solubility (g/100 g solution)": 26.4}
{"Molecule": "O=C(O)c1ccc(C(=O)O)o1 + C1CCOC1 + O", "solubility (g/100 g solution)": 8.25}
{"Molecule": "COC1=CC(=O)CC(C)C12Oc1c(Cl)c(OC)cc(OC)c1C2=O (stereo not given) + CCC(C)=O + CC(C)O", "solubility (g/100 g solution)": 2.25}

A. O=C(O)c1ccc(C(=O)O)o1 + O + COCCOC
B. CCCCOc1ccc(C(=O)CCN2CCCCC2)cc1.Cl + CCO + CCOC(C)=O
Rank A against B by their solubility (g/100 g solution) values and give the higher one. # respond with the chosen item's label
B

1. O=C(O)c1ccc(C(=O)O)o1 + C1COCCO1 + O
2. O=C(O)C1CSCN1 (stereo not given) + O + CC#N
Rank 1 against 2 by their solubility (g/100 g solution) values and give the higher one. # respond with the chosen item's label
1
(1: 6.04, 2: 0.192)

1. O=C(O)c1ccc(C(=O)O)o1 + O + COCCOCCOC
2. CCCCOc1ccc(C(=O)CCN2CCCCC2)cc1.Cl + CCO + O
Which record shows the lower solubility (g/100 g solution): the first, 1 , or the second, 2 ? # respond with the chosen item's label
1
(1: 4.79, 2: 62.7)

====

Assay: xn = mol fraction of the nth substance listed, in the solute-free solvent
Settings: 293.15 K; x2 = 0.6
Property measured: solubility (g/100 g solution)

{"Compound": "CCCCOc1ccc(C(=O)CCN2CCCCC2)cc1.Cl + CCO + CCOC(C)=O", "Property measured": "solubility (g/100 g solution)", "Reported measurement": 24.1}
{"Compound": "CC(=O)OC(c1ccccc1)C(Cl)(Cl)Cl (stereo not given) + CC(C)O + O", "Property measured": "solubility (g/100 g solution)", "Reported measurement": 2.57}

A. CCCCOc1ccc(C(=O)CCN2CCCCC2)cc1.Cl + CCO + O
B. O=C(O)C1CSCN1 (stereo not given) + O + CC#N
C. O=C(O)c1ccc(C(=O)O)o1 + C1CCOC1 + O
D. CCCCOc1ccc(C(=O)CCN2CCCCC2)cc1.Cl + CCO + CCCCCC
Sort ascending by solubility (g/100 g solution). When ranking, write the labels in the order the request describes.
B, C, D, A
(B: 0.433, C: 6.58, D: 22.7, A: 41.5)

====

Experiment: xn = mol fraction of the nth substance listed, in the solute-free solvent
Settings: 278.15 K; x2 = 0.3
Property measured: solubility (g/100 g solution)

{"Molecule": "CCCCOc1ccc(C(=O)CCN2CCCCC2)cc1.Cl + CCO + CCCCCC", "solubility (g/100 g solution)": 7.84}
{"Molecule": "CCCCOc1ccc(C(=O)CCN2CCCCC2)cc1.Cl + CO + C1CCOC1", "solubility (g/100 g solution)": 12}

1. CCCCOc1ccc(C(=O)CCN2CCCCC2)cc1.Cl + CCO + CCOC(C)=O
2. CCCCOc1ccc(C(=O)CCN2CCCCC2)cc1.Cl + CCO + O
Which record shows the lower solubility (g/100 g solution): the first, 1 , or the second, 2 ? # respond with the chosen item's label
1
(1: 9.22, 2: 33.4)

====

Assay: xn = mol fraction of the nth substance listed, in the solute-free solvent
Conditions: 303.15 K; x2 = 0.5
Property measured: solubility (g/100 g solution)

// known answers, use as guide
{"Compound": "CC(=O)OC(c1ccccc1)C(Cl)(Cl)Cl (stereo not drawn) + CCO + O", "solubility (g/100 g solution)": 1.98}
{"Compound": "O=C(O)c1ccc(C(=O)O)o1 + O + COCCOC", "solubility (g/100 g solution)": 5.53}
{"Compound": "CCCCOc1ccc(C(=O)CCN2CCCCC2)cc1.Cl + CO + C1CCOC1", "solubility (g/100 g solution)": 33.5}

I. CCCCOc1ccc(C(=O)CCN2CCCCC2)cc1.Cl + CCO + O
II. O=C(O)c1ccc(C(=O)O)o1 + C1CCOC1 + O
Rank I against II by their solubility (g/100 g solution) values and give the higher one. # respond with the chosen item's label
I
(I: 48.5, II: 7.21)

====

Assay: xn = mol fraction of the nth substance listed, in the solute-free solvent
Settings: 308.15 K; x2 = 0.7
Property measured: solubility (g/100 g solution)

{"Compound": "CC(=O)OC(c1ccccc1)C(Cl)(Cl)Cl (stereo not drawn) + CCO + O", "solubility (g/100 g solution)": 6.14}

I. CCCCOc1ccc(C(=O)CCN2CCCCC2)cc1.Cl + CCO + O
II. O=C(O)c1ccc(C(=O)O)o1 + O + COCCOC
Which record shows the lower solubility (g/100 g solution): the first, I , or the second, II ? # respond with the chosen item's label
II

====

Test: xn = mol fraction of the nth substance listed, in the solute-free solvent
Conditions: 313.15 K; x2 = 0.4
Property measured: solubility (g/100 g solution)

{"Compound": "CC(=O)OC(c1ccccc1)C(Cl)(Cl)Cl (stereo not drawn) + CCO + O", "solubility (g/100 g solution)": 2.85}
{"Compound": "O=C(O)c1ccc(C(=O)O)o1 + O + COCCOCCOC", "solubility (g/100 g solution)": 4.4}
{"Compound": "O=C(O)c1ccc(C(=O)O)o1 + O + COCCOC", "solubility (g/100 g solution)": 5.03}
{"Compound": "O=C(O)c1ccc(C(=O)O)o1 + C1COCCO1 + O", "solubility (g/100 g solution)": 5.55}
{"Compound": "O=C1CCc2ccc(OCCCCN3CCN(c4cccc(Cl)c4Cl)CC3)cc2N1 + CCC(C)=O + CCCO", "solubility (g/100 g solution)": 5.18}

a. CCCCOc1ccc(C(=O)CCN2CCCCC2)cc1.Cl + CCO + CCCCCC
b. O=C(O)C1CSCN1 (stereo not drawn) + O + CC#N
c. O=C(O)c1ccc(C(=O)O)o1 + C1CCOC1 + O
Sort ascending by solubility (g/100 g solution). When ranking, write the labels in the order the request describes.
b, c, a
(b: 0.159, c: 7.6, a: 21.8)

====

Experiment: xn = mol fraction of the nth substance listed, in the solute-free solvent
Conditions: 328.15 K; x2 = 0.7
Property measured: solubility (g/100 g solution)

{"Molecule": "CC(=O)OC(c1ccccc1)C(Cl)(Cl)Cl (configuration not stated) + CCO + O", "solubility (g/100 g solution)": 18}
{"Molecule": "O=C(O)c1ccc(C(=O)O)o1 + O + COCCOC", "solubility (g/100 g solution)": 6.93}
{"Molecule": "O=C(O)c1ccc(C(=O)O)o1 + O + COCCOCCOC", "solubility (g/100 g solution)": 7.59}
{"Molecule": "CC(=O)OC(c1ccccc1)C(Cl)(Cl)Cl (configuration not stated) + CC(=O)O + O", "solubility (g/100 g solution)": 23.4}
{"Molecule": "CC(=O)OC(c1ccccc1)C(Cl)(Cl)Cl (configuration not stated) + CC(C)O + O", "solubility (g/100 g solution)": 21.4}

1. O=C(O)c1ccc(C(=O)O)o1 + C1CCOC1 + O
2. O=C(O)c1ccc(C(=O)O)o1 + C1COCCO1 + O
Which record shows the lower solubility (g/100 g solution): the first, 1 , or the second, 2 ? # respond with the chosen item's label
2
(2: 4.25, 1: 8.5)
